- Subject of test: human TRPC6 (Homo sapiens, UniProt Q9Y210)
- Construct: expressed in transfected cells; host or cells: HEK 293
- Sequence (Q9Y210 whole entry): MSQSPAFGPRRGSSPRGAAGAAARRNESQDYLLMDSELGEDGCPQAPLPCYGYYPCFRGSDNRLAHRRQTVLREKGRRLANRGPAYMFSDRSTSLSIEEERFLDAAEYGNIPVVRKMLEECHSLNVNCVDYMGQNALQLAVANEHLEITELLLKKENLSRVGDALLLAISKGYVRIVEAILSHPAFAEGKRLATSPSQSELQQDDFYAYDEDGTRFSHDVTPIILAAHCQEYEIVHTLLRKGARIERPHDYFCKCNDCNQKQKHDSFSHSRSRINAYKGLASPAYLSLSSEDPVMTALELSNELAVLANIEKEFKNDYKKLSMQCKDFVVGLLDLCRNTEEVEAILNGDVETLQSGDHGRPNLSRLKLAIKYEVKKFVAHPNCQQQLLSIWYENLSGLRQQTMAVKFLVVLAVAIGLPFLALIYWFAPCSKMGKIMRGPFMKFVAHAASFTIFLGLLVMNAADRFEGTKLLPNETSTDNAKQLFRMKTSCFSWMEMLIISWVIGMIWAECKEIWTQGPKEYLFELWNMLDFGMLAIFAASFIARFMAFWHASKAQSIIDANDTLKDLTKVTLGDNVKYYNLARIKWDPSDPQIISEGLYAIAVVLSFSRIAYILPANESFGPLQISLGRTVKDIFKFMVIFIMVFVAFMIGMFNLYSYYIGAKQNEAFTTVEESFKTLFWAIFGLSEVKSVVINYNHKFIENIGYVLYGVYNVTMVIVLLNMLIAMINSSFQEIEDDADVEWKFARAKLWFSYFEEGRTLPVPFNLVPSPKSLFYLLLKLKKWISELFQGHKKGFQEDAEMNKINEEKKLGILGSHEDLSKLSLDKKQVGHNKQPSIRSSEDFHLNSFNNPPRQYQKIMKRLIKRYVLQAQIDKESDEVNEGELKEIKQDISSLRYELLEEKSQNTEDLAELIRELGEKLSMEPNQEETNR
- Experimental protocol: TRPC6 fluorescence-based assay (Ca2+ flux assay in FLIPR format), cells overexpressing TRPC6
- Assay type: cell-based
- Experimental parameters: 5 μM of test compound, following Carbachol stimulation
Metric: inhibition at 5 µM (%)

Observe how each entry below is paired with its result.
CCSc1nc2ccccc2n1Cc1cccc([N+](=O)[O-])c1 : 50
C=CCn1c(NCc2cccs2)nc2ccccc21 : 14.6
Cc1ccc(Cn2c(CN3CCC(CN)C3)nc3ccccc32)cc1 (stereo not drawn) : 51
CCn1c(NCc2ccc(Br)cc2)nc2ccccc21 : 77.3
CCOc1ccccc1CNc1nc2ccccc2n1C : 19.3
CCN(CC)CCn1c(NCc2cccc(Br)c2)nc2ccccc21 : 69.8

A = COc1ccc(/C=N/c2nc3ccccc3n2Cc2ccc(C)cc2)cc1
B = COc1ccccc1Cn1c(C)nc2ccccc21
Between A and B , which one shows the larger inhibition at 5 µM value? Answer with the label corresponding to your selection.
B

###

- Subject of test: human TRPC5 (Homo sapiens)
- Construct: expressed in transfected cells; host or cells: HEK 293
- Sequence (Q9UL62 1-973): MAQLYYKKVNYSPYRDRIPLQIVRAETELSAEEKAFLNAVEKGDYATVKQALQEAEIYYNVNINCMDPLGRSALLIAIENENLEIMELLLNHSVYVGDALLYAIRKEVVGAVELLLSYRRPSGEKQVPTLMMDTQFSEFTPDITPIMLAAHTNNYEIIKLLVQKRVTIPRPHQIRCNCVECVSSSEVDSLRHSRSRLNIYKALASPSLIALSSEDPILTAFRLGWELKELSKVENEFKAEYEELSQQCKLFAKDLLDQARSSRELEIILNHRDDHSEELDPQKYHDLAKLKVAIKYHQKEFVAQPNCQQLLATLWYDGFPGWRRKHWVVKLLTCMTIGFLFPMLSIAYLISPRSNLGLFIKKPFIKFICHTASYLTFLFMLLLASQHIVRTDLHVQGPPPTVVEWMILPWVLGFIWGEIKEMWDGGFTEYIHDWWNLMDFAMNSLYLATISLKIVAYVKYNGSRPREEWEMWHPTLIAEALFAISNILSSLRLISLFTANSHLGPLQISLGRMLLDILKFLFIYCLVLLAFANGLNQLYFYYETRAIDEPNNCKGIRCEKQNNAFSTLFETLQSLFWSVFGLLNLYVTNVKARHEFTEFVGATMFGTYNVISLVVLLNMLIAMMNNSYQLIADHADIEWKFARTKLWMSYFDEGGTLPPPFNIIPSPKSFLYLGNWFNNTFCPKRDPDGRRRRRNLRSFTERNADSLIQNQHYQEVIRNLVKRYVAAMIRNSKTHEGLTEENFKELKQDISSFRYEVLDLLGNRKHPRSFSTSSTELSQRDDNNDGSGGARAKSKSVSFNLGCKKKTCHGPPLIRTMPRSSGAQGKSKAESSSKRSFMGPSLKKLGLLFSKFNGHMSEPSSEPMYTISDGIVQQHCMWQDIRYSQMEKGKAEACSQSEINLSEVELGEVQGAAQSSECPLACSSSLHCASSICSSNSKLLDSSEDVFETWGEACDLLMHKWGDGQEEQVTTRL
- Experimental protocol: TRPC5 fluorescence-based assay (Ca2+ flux assay in FLIPR format), cells overexpressing TRPC5
- Type: cell-based
- Experimental parameters: 5 μM of test compound, following Carbachol stimulation
Metric: inhibition at 5 µM (%)

These solved cases illustrate the format of a correct answer.
CCN(CC)CCn1c(NCc2ccccc2OC)nc2ccccc21 : 63.4
Cn1c(NCc2c[nH]c3ccccc23)nc2ccccc21 : 66.8
CCCCn1c(NCc2cccs2)nc2ccccc21 [drawing 80] : 66.1

A = Cc1ccccc1Cn1c(C2CC2)nc2ccccc21
B = CCCn1c(NCc2ccc(N(CC)CC)cc2)nc2ccccc21
// max by inhibition at 5 µM over [ A , B ] Pick one and reply with its label.
B
